All figures here come from paper PMC10698032.

Target: Potassium Channel hERG (human) (Homo sapiens)
Construct: gene KCNH2
Sequence (Q12809 whole entry): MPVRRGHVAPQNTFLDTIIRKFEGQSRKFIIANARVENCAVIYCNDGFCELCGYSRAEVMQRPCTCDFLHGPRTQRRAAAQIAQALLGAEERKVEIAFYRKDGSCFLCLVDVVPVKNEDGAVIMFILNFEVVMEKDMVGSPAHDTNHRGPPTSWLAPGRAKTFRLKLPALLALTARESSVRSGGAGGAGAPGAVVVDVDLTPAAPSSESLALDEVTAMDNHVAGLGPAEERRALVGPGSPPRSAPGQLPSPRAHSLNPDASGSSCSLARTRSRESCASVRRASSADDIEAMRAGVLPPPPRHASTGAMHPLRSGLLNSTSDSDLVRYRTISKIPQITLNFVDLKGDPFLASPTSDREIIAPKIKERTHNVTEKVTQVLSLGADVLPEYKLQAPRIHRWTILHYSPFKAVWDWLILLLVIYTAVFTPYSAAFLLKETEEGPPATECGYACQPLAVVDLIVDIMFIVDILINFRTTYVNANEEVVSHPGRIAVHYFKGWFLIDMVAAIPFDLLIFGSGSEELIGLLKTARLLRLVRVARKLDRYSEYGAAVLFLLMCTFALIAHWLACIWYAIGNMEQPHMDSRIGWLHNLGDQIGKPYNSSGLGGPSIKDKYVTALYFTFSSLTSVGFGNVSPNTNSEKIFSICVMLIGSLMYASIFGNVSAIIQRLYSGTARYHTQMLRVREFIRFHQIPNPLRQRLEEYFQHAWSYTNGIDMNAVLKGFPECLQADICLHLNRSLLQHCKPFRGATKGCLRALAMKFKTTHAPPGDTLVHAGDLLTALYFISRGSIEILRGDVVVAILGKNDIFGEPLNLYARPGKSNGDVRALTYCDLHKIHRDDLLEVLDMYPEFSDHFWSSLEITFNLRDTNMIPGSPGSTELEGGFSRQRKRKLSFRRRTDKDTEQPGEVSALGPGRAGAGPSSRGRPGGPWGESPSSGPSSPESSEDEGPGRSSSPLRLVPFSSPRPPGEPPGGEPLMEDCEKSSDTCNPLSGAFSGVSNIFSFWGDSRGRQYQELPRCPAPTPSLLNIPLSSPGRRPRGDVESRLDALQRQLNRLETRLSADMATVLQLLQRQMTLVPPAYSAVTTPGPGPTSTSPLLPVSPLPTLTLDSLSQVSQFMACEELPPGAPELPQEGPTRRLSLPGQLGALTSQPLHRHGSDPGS
Assay: in vitro
Design: CEREP off-target panel, radioligand binding, inhibition of control specific binding
Details: read-out: % Inhibition of Control Specific Binding, Mean
assay metric: inhibition at 10 µM

molecule	assay metric	reported measurement
CCC(F)(F)C(=O)C[S+]([O-])c1ccc(C(=O)N2CCN(c3cccc(Cl)c3)[C@@H](C)[C@@H]2C)cc1Cl (mixture of isomers) [compound 3, LEI-515]	inhibition at 10 µM	5.8%

* * *

Biological target: MAGL (monoacylglycerol lipase) (Mus musculus, UniProt O35678)
Sequence (O35678 whole entry): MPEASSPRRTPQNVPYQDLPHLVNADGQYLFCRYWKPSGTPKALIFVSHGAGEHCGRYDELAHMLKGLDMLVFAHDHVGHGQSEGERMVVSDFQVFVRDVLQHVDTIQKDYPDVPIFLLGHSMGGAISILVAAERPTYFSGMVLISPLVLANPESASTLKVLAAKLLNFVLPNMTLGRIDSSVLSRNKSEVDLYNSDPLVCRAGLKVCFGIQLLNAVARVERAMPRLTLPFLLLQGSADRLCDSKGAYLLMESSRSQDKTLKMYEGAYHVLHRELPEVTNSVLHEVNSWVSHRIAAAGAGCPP
pIC50: −log10 of the molar value.

compound	pIC50
CCC(F)(F)C(=O)C[S+]([O-])c1ccc(C(=O)N2CCN(c3cccc(Cl)c3)[C@@H](C)[C@@H]2C)cc1Cl (mixture of isomers) [compound 3, LEI-515]	7.60
